These entries and their values trace back to patent US11192891B2.

Measured pIC50 (ROCK2 (Homo sapiens))
Note on pIC50: it is the negative log10 of concentration, concentration in mol/L.

Problem: Quick check: pIC50 of COc1cc(N2CCC3(CCN(C(=O)c4cc5ccccc5[nH]4)CC3)C2=O)ccc1-c1cn[nH]c1 ?
Result: 6.33

Problem: Same question, COc1cc(N2CCC3(CCN(C(=O)c4ccc(N5CCCOC5=O)cc4)CC3)C2=O)ccc1-c1cn[nH]c1 this time
Result: 8.15

Problem: Same question, COc1ccc(NC(=O)N2CCC3(CC2)CCN(c2ccc(-c4cn[nH]c4)c(OC)c2)C3=O)cc1 this time
Result: 5.61

Problem: Same question, COc1cc(N2CCC3(CCN(C(=O)c4ccn5nc[nH]c(=O)c45)CC3)C2=O)ccc1-c1cn[nH]c1 this time
Result: 8.27

Problem: Same question, COc1cc(N2CCC3(CCN(C(=O)c4cccnc4)CC3)C2=O)ccc1-c1cn[nH]c1 this time
Result: 6.38

Problem: Same question, COc1cc(N2CCC3(CCN(C(=O)c4ccc(Oc5ccc(Cl)cc5)cc4)CC3)C2=O)ccc1-c1cn[nH]c1 this time
Result: 7.41

Problem: Same question, COc1cc(N2CCC3(CCN(C(=O)c4ccc(-c5ccncc5)cc4)CC3)C2=O)ccc1-c1cn[nH]c1 this time
Result: 8.26

Problem: Same question, COc1cc(N2CCC3(CCN(C(=O)c4ccc(-n5cncn5)cc4)CC3)C2=O)ccc1-c1cn[nH]c1 this time
Result: 7.60

Problem: Same question, COc1ccccc1C(=O)N1CCC2(CC1)CCN(c1ccc(-c3cn[nH]c3)cc1)C2=O this time
Result: 6.80

Problem: Same question, COc1cc(N2CCC3(CCN(C(=O)c4ccc(N)cc4Cl)CC3)C2=O)ccc1-c1cn[nH]c1 this time
Result: 7.42

Problem: Same question, COc1cc(N2CCC3(CCN(C(=O)c4ccc5nc(-c6ccncc6)[nH]c5c4)CC3)C2=O)ccc1-c1cn[nH]c1 this time
Result: 7.80

Problem: Same question, COc1cc(N2CCC3(CCN(S(=O)(=O)c4ccc5c(c4)C(=O)NC5=O)CC3)C2=O)ccc1-c1cn[nH]c1 this time
Result: 5.64

Problem: Same question, COc1cc(N2CCC3(CCN(C(=O)c4ccc(-c5cnco5)cc4)CC3)C2=O)ccc1-c1cn[nH]c1 this time
Result: 7.64

Problem: Same question, COc1cc(N2CCC3(CCN(C(=O)c4cnccn4)CC3)C2=O)ccc1-c1cn[nH]c1 this time
Result: 6.54

Problem: Same question, COc1ccc(C(=O)N2CCC3(CC2)CCN(c2ccc(-c4cn[nH]c4)c(OC)c2)C3=O)c(Cl)c1 this time
Result: 7.96

----------
Measured pIC50 (ROCK2 (Homo sapiens))
Note on pIC50: it is the negative log10 of concentration, concentration in mol/L.

Problem: Could you share what pIC50 was measured for COc1cc(N2CCC3(CCN(C(=O)c4ccc(N(C)C)cc4)CC3)C2=O)ccc1-c1cn[nH]c1 , tested on ROCK2 (Homo sapiens)?
Result: 7.80

Problem: Same question, COc1cc(N2CCC3(CCN(C(=O)c4ccc5cnccc5c4)CC3)C2=O)ccc1-c1cn[nH]c1 this time
Result: 7.48

Problem: Same question, COc1cc(N2CCC3(CCN(C(=O)C4CCC(C(N)=O)CC4)CC3)C2=O)ccc1-c1cn[nH]c1 (stereo not shown) this time
Result: 5.66

Problem: Same question, COc1cc(N2CCC3(CCN(S(=O)(=O)c4ccc(S(N)(=O)=O)cc4)CC3)C2=O)ccc1-c1cn[nH]c1 this time
Result: 6.34

----------
Measured IC50 (ROCK2 (Homo sapiens))
Just the number in nM, nothing appended.

Problem: Could you share what IC50 was measured for COc1cc(N2CCC3(CCN(C(=O)C4CCN(C)CC4)CC3)C2=O)ccc1-c1cn[nH]c1 , tested on ROCK2 (Homo sapiens)?
Result: 2070

Problem: Same question, COc1cc(N2CCC3(CCN(C(=O)c4ccc(N5CCN(Cc6ccc(-n7ccnc7)cc6)CC5)cc4)CC3)C2=O)ccc1-c1cn[nH]c1 this time
Result: 0.3

Problem: Same question, COc1cc(N2CCC3(CCN(C(=O)c4ccc(F)c(C)c4)CC3)C2=O)ccc1-c1cn[nH]c1 this time
Result: 96

Problem: Same question, CN1CCN(c2ccc(C(=O)N3CCC4(CC3)CCN(c3ccc(-c5ccc6[nH]ncc6c5)cc3)C4=O)cc2)CC1 this time
Result: 0.5

Problem: Same question, COc1ccc2cc(C(=O)N3CCC4(CC3)CCN(c3ccc(-c5cn[nH]c5)c(OC)c3)C4=O)ccc2c1 this time
Result: 20

Problem: Same question, CCc1ccc(C(=O)N2CCC3(CC2)CCN(c2ccc(-c4cn[nH]c4)c(OC)c2)C3=O)nc1 this time
Result: 12

Problem: Same question, COc1ccc(C(=O)N2CCC3(CC2)CCN(c2cccc(-c4ccc5[nH]ncc5c4)c2)C3=O)cc1 this time
Result: 1870

Problem: Same question, COc1ccc(C(=O)N2CCC3(CC2)CCN(c2ccc(-c4cn[nH]c4)c(OC)c2)C3=O)c(F)c1 this time
Result: 8

Problem: Same question, COc1cc(N2CCC3(CCN(C(=O)c4ccc(-c5ccc(S(C)(=O)=O)cc5)cc4)CC3)C2=O)ccc1-c1cn[nH]c1 this time
Result: 3.7

Problem: Same question, COc1cc(N2CCC3(CCN(C(=O)c4ccc(C(=O)O)cc4)CC3)C2=O)ccc1-c1cn[nH]c1 this time
Result: 1430

Problem: Same question, COc1ccc(C(=O)N2CCC3(CC2)CCN(c2ccc(-c4cn[nH]c4)c(OC)c2)C3=O)c(Br)c1 this time
Result: 17

Problem: Same question, COc1cc2cc(C(=O)N3CCC4(CC3)CCN(c3ccc(-c5cn[nH]c5)c(OC)c3)C4=O)n(C)c2cc1OC this time
Result: 14

Problem: Same question, COc1cc(N2CCC3(CCN(C(=O)c4ccc(N5CCN(C(=O)OC(C)(C)C)CC5)cc4)CC3)C2=O)ccc1-c1cn[nH]c1 this time
Result: 8.9

Problem: Same question, COc1cc(N2CCC3(CCN(C(=O)c4ccc(-c5nc(C)no5)cc4)CC3)C2=O)ccc1-c1cn[nH]c1 this time
Result: 37

----------
Measured IC50 (UniProt O75116)
Just the number in nM, nothing appended.

Problem: Quick check: IC50 of COc1cc(N2CCC3(CCN(C(=O)c4cc(C(F)(F)F)n(C)n4)CC3)C2=O)ccc1-c1cn[nH]c1 [Example 107] ?
Result: 67

Problem: Same question, COc1cc(N2CCC3(CCN(C(=O)c4ccc(N5CCOCC5)c(F)c4)CC3)C2=O)ccc1-c1cn[nH]c1 [Example 127] this time
Result: 11.2

Problem: Same question, COc1cc(N2CCC3(CCN(C(=O)c4csc(-c5cccnc5)n4)CC3)C2=O)ccc1-c1cn[nH]c1 [Example 78] this time
Result: 76

Problem: Same question, CN1CCN(c2ccc(C(=O)N3CCC4(CC3)CCN(c3ccc(-c5ccnc(N)c5)cc3)C4=O)cc2)CC1 [Example 36] this time
Result: 2

----------
Exercise: for every item that follows, state its recorded IC50.
target-entity: ROCK2 (Homo sapiens, UniProt O75116)
Sequence (O75116 whole entry, species assumed): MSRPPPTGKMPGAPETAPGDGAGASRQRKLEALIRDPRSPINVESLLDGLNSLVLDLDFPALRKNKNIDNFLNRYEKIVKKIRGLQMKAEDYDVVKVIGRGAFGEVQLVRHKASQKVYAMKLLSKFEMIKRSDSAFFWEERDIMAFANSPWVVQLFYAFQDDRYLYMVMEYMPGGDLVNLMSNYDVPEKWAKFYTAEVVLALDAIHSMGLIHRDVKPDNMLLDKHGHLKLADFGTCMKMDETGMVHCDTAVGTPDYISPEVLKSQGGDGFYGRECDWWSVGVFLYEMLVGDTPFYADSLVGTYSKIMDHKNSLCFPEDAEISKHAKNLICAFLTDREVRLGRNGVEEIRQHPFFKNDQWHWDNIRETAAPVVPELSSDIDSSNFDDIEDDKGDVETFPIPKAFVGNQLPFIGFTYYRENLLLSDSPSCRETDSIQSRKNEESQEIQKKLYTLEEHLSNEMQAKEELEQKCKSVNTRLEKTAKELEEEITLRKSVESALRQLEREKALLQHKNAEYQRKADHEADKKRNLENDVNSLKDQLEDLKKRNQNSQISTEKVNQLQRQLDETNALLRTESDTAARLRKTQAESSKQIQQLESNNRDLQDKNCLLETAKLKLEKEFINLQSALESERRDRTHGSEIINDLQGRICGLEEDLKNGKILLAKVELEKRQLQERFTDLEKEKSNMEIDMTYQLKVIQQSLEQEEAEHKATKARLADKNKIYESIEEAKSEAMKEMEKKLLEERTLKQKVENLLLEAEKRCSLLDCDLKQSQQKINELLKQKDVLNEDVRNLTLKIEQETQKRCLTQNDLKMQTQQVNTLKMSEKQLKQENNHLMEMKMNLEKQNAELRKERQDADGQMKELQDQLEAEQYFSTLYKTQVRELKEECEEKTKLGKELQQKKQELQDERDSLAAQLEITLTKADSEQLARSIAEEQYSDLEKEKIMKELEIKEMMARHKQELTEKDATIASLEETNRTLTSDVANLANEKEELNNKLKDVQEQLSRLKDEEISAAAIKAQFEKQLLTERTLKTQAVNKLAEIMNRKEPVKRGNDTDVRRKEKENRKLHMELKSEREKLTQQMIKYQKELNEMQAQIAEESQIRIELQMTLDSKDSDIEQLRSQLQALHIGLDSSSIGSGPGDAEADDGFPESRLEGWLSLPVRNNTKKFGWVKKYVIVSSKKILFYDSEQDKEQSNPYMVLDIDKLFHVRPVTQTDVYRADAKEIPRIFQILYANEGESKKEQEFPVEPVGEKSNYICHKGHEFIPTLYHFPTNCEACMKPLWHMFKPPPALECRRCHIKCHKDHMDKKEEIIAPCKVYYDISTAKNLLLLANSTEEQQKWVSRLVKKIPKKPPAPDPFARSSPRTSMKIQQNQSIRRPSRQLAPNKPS
Just the number in µM, nothing appended.

Problem: Quick check: IC50 of COc1cc(N2CCC3(CCN(C(=O)c4ccc(C(F)(F)F)nc4)CC3)C2=O)ccc1-c1cn[nH]c1 ?
Result: 0.557

Problem: Same question, COc1cc(N2CCC3(CCN(C(=O)c4ccsc4)CC3)C2=O)ccc1-c1cn[nH]c1 this time
Result: 0.382

Problem: Same question, COc1cc(N2CCC3(CCN(C(=O)c4cccn4C)CC3)C2=O)ccc1-c1cn[nH]c1 this time
Result: 1.43

Problem: Same question, COc1cc(N2CCC3(CCN(C(=O)c4ccc(N5CCOC5=O)cc4)CC3)C2=O)ccc1-c1cn[nH]c1 this time
Result: 0.003

Problem: Same question, COc1cc(N2CCC3(CCN(C(=O)c4ccc(N5CCN(Cc6cnc7ccccc7n6)CC5)cc4)CC3)C2=O)ccc1-c1cn[nH]c1 this time
Result: 0.0019

Problem: Same question, COc1cc(N2CCC3(CCN(C(=O)c4cc(C)on4)CC3)C2=O)ccc1-c1cn[nH]c1 this time
Result: 0.072

Problem: Same question, COc1cc(N2CCC3(CCN(C(=O)c4ccno4)CC3)C2=O)ccc1-c1cn[nH]c1 this time
Result: 0.427

Problem: Same question, COc1cccc(C(=O)N2CCC3(CCN(c4ccc(-c5cn[nH]c5)cc4)C3=O)C2)c1 (stereo not drawn) this time
Result: 0.444

Problem: Same question, COc1cc(N2CCC3(CCN(C(=O)c4ccc5ccn(C)c5c4)CC3)C2=O)ccc1-c1cn[nH]c1 this time
Result: 0.04

Problem: Same question, COc1cc(N2CCC3(CCN(C(=O)C4Cc5ccccc5O4)CC3)C2=O)ccc1-c1cn[nH]c1 (stereo not drawn) this time
Result: 1.97

Problem: Same question, COc1cc(N2CCC3(CCN(C(=O)c4cccc(Oc5ccccc5)c4)CC3)C2=O)ccc1-c1cn[nH]c1 this time
Result: 0.118

Problem: Same question, COc1cc(N2CCC3(CCN(C(=O)c4ccc(N5CCCNC5=O)cc4)CC3)C2=O)ccc1-c1cn[nH]c1 this time
Result: 0.0077

Problem: Same question, COc1cc(N2CCC3(CCN(C(=O)c4ccc(-c5nn[nH]n5)cc4)CC3)C2=O)ccc1-c1cn[nH]c1 this time
Result: 1.02

Problem: Same question, COc1cc(N2CCC3(CCN(C(=O)Nc4ccc(N(C)C)cc4)CC3)C2=O)ccc1-c1cn[nH]c1 this time
Result: 0.791

Problem: Same question, COc1cc(N2CCC3(CCN(C(=O)c4ccc(N5CCN(C(C)CN(C)C)CC5)cc4)CC3)C2=O)ccc1-c1cn[nH]c1 (stereo not drawn) this time
Result: 0.0031
